# assay explanation: chemical genetic growth profiling, strain panel (AID 1159580);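 further: tested at 20 µM; growth read once vehicle control cultures reached saturation at 30 °C; 1 = growth at the plate median or of vehicle wells; lower values mean less growth of the strain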
# particulars: S. cerevisiae deletion strains, growth OD, locus YOL006C, strain TOP1, active compounds read low
Hit rate of the full screen: of about 5,500 compounds, about 2,000 (36%) were called active. Inconclusive results (about 18%) are left out. The list shows a part of the results.
parameter measured: normalized growth

>>> quantitative_result("OC[C@H]1O[C@@](CO)(O[C@@H]2O[C@H](CO)[C@@H](O)[C@H](O)[C@H]2O)[C@@H](O[C@@H]2O[C@H](CO)[C@@H](O)[C@H](O)[C@H]2O)[C@@H]1O")
1.23
>>> quantitative_result("Cc1cc(=O)oc2cc(O)c(O)cc12")
0.805
>>> quantitative_result("COc1cc(C(C)=O)cc(OC)c1O")
1.02
>>> quantitative_result("COc1cc(C/C=C/c2ccccc2)c(OC)cc1O")
1.23
>>> quantitative_result("O=C(O)C1C2CCC1C(O)C2 (stereo not drawn)")
0.972
>>> quantitative_result("CC(=O)O[C@H]1CC[C@@]2(C)C(=CC(=O)C3C4CCC(C(C)CCCC(C)C)[C@@]4(C)CCC32)C1 (stereo partly drawn)")
1.05
>>> quantitative_result("C=C1c2cccc(O)c2C(O)=C2C(=O)[C@]3(O)C(O)=C(C(N)=O)C(=O)[C@@H](N(C)C)[C@@H]3[C@@H](O)[C@H]12")
0.891
>>> quantitative_result("N=C(N)N")
0.979
>>> quantitative_result("CC(C)CCCC(C)C1CC[C@@]2(C)C3=C(CC[C@]12C)[C@@]1(C)CC[C@H](O)C(C)(C)C1CC3 (stereo partly drawn)")
1.03
>>> quantitative_result("CN(C)C(=O)Oc1cccc([N+](C)(C)C)c1")
1.03
>>> quantitative_result("CC(Cc1cccc(C(F)(F)F)c1)NCCOC(=O)c1ccccc1 (stereo not drawn)")
0.605
>>> quantitative_result("COc1c(C)c2c(c(C)c1Cl)Oc1c(Cl)c(OC)c(Cl)c(C)c1C(=O)O2")
1.1
>>> quantitative_result("CC(C)=CCc1c2c(c3occ(-c4ccc(O)cc4)c(=O)c3c1O)C=CC(C)(C)O2")
0.389
>>> quantitative_result("COc1ccc([C@@H]2CC(=O)c3c(O)cc(O[C@@H]4O[C@H](CO[C@H]5O[C@@H](C)[C@H](O)[C@@H](O)[C@H]5O)[C@@H](O)[C@H](O)[C@H]4O)cc3O2)cc1O")
0.962
>>> quantitative_result("CN(C)c1ccc(O)c2c1C[C@H]1C[C@H]3[C@H](N(C)C)C(=O)C(C(N)=O)=C(O)[C@@]3(O)C(=O)C1=C2O")
0.887
>>> quantitative_result("NCC(=O)c1ccccc1")
1.09
>>> quantitative_result("Cc1cc(=O)[nH]c(=S)[nH]1")
1.08
>>> quantitative_result("Nc1ccc(C(=O)O)cc1")
1.06
>>> quantitative_result("CCOC(=O)c1ccc(NC(=O)CCC(=O)O)cc1")
1.04
>>> quantitative_result("Clc1ccc(Sc2ncnc3ccsc23)cc1")
0.516
>>> quantitative_result("CCN(CC)CCOC(=O)C(c1ccccc1)C1CCCCC1 (stereo not drawn)")
0.94
>>> quantitative_result("NCCCCCCNS(=O)(=O)c1cccc2c(Cl)cccc12")
0.955
>>> quantitative_result("CC(C)=CCCC(C)C1CC[C@@]2(C)C3=C(CC[C@]12C)C1(C)CC[C@H](O)C(C)(C)C1CC3 (stereo partly drawn)")
0.903
>>> quantitative_result("C/C1=C/CC(C)(C)/C=C/C/C(C)=C/CC1")
0.917
>>> quantitative_result("CN(C)CCCN1c2ccccc2Sc2ccc(C(F)(F)F)cc21")
0.611
>>> quantitative_result("CC(=O)Oc1cccc(O)c1")
0.999
>>> quantitative_result("CN[C@@H]1[C@H](O)[C@H](NC)[C@H]2O[C@@]3(O)C(=O)C[C@@H](C)O[C@H]3O[C@@H]2[C@H]1O")
1.08
>>> quantitative_result("CC(C)c1ccc2c(c1)CCC1[C@](C)(CN)CCC[C@]21C (stereo partly drawn)")
0.139
>>> quantitative_result("C[n+]1ccccc1/C=N/O")
1.01
>>> quantitative_result("CN(C)C1C(=O)C(C(N)=O)=C(O)C2(O)C(=O)C3=C(O)c4c(O)ccc(Cl)c4C(C)(O)C3CC12 (stereo not drawn)")
1.09
>>> quantitative_result("N/C(Cc1cccc2ccccc12)=N/O")
1.05
>>> quantitative_result("Cc1ccc2c(c1)C1(C)CCCC(C)(C(=O)O)C1CC2 (stereo not drawn)")
0.956
>>> quantitative_result("C=C(C)C1CCC(C)(O)C2CC3OC3(C)C2C1 (stereo not drawn)")
0.996
>>> quantitative_result("CC(=O)Oc1ccc(/C=C/c2cc(OC(C)=O)cc(OC(C)=O)c2)cc1")
0.883
>>> quantitative_result("CC1=CC(=O)c2ccccc2C1=O")
0.0979
>>> quantitative_result("CCOC(CN(c1ccc(F)cc1)S(=O)(=O)c1ccc(F)cc1F)OCC")
1.03
>>> quantitative_result("N[C@@H](CCC(=O)N[C@@H](CS)C(=O)NCC(=O)O)C(=O)O")
0.986
>>> quantitative_result("CC(=O)Oc1c(Cl)c(C)c2c(c1Cl)OC(=O)c1c(C)c(Cl)c(OC(C)=O)c(Cl)c1O2")
0.734
>>> quantitative_result("NC(=S)CSc1ccccc1")
0.31
>>> quantitative_result("OC[C@H]1O[C@@H](O[C@@H]2[C@@H](CO)O[C@](O)(CO)[C@H]2O)[C@H](O)[C@@H](O)[C@H]1O")
0.965
>>> quantitative_result("CC(=O)N[C@@H](Cc1c[nH]c2ccccc12)C(N)=O")
0.943
>>> quantitative_result("CN(C)[C@@H]1C(=O)C(C(N)=O)=C(O)[C@@]2(O)C(=O)C3=C(O)c4c(O)cccc4[C@@](C)(O)[C@H]3[C@H](O)[C@@H]12")
1.03
>>> quantitative_result("COC(=O)/C(=C1\\OC(=O)C(c2ccccc2)=C1O)c1ccccc1")
1.17

---

Recorded normalized growth for the following compounds
# assay explanation: chemical genetic growth profiling, strain panel (AID 1159580);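 further: tested at 20 µM; growth read once vehicle control cultures reached saturation at 30 °C; 1 = growth at the plate median or of vehicle wells; lower values mean less growth of the strain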
# particulars: S. cerevisiae deletion strains, growth OD, locus YML032C, strain rad52, active compounds read low
Among all 5,500 compounds or so, about 2,000 (36%) were called active. About 18% were inconclusive and are not listed. The list shows a part of the results.
parameter measured: normalized growth

>>> quantitative_result("CN(C)C1C(=O)C(C(N)=O)=C(O)C2(O)C(=O)C3=C(O)c4c(O)ccc(Cl)c4C(C)(O)C3CC12 (stereo unspecified)")
0.98
>>> quantitative_result("CC(C)c1ccc2c(c1)CCC1[C@](C)(CN)CCC[C@]21C (stereo partly specified)")
0.32
>>> quantitative_result("Cc1ccc2c(c1)C1(C)CCCC(C)(C(=O)O)C1CC2 (stereo unspecified)")
1.03
>>> quantitative_result("Oc1c(Cl)cc(Cl)cc1Sc1cc(Cl)cc(Cl)c1O")
0.986
>>> quantitative_result("CCCc1cc(=O)[nH]c(=S)[nH]1")
0.989
>>> quantitative_result("CC12CCC(=O)C=C1CCC1C2[C@@H](O)CC2(C)C1CC[C@]2(O)C(=O)COP(=O)(O)O (stereo partly specified)")
0.991
>>> quantitative_result("C[n+]1ccccc1/C=N/O")
0.989
>>> quantitative_result("CC(C)c1ccc2c(c1)CCC1C(C)(C(N)=O)CCCC21C (stereo unspecified)")
0.954
>>> quantitative_result("CC(N=C(NC#N)Nc1ccncc1)C(C)(C)C (stereo unspecified)")
1.03
>>> quantitative_result("CN(C)[C@@H]1C(=O)C(C(N)=O)=C(O)[C@@]2(O)C(=O)C3=C(O)c4c(O)ccc(Cl)c4[C@@](C)(O)[C@H]3C[C@@H]12")
0.988
>>> quantitative_result("Nc1ccc(C(=O)O)cc1")
1.01
>>> quantitative_result("C[C@H](CCC(=O)O)[C@H]1CCC2C3C(=O)CC4CC(=O)CC[C@]4(C)C3CC(=O)[C@@]21C (stereo partly specified)")
0.994
>>> quantitative_result("CC(=O)OCC(=O)[C@@]1(O)[C@H](C)CC2C3CCC4=CC(=O)C=C[C@]4(C)[C@@]3(F)[C@@H](O)C[C@@]21C (stereo partly specified)")
0.997
>>> quantitative_result("CS(=O)(=O)c1ccc([C@@H](O)[C@@H](CO)NC(=O)C(Cl)Cl)cc1")
1
>>> quantitative_result("CC(=O)O[C@H]1CC[C@@]2(C)C(=CC(=O)C3C4CCC(C(C)CCCC(C)C)[C@@]4(C)CCC32)C1 (stereo partly specified)")
0.985
>>> quantitative_result("CC(C)CCCC(C)[C@H]1CCC2C3C(=O)C=C4C[C@@H](O)CC[C@]4(C)C3CC[C@@]21C (stereo partly specified)")
1.02
>>> quantitative_result("C/C1=C\\CC(C)(C)/C=C/CC2(C)OC2CC1 (stereo unspecified)")
1
>>> quantitative_result("Cc1cc(=O)[nH]c(=S)[nH]1")
1.04
>>> quantitative_result("CC1=CC(=O)c2ccccc2C1=O")
0.112
>>> quantitative_result("CN[C@@H]1[C@H](O)[C@H](NC)[C@H]2O[C@@]3(O)C(=O)C[C@@H](C)O[C@H]3O[C@@H]2[C@H]1O")
1.04
>>> quantitative_result("NC1=NCCN1CC(=O)O")
0.994
